Data origin: ChEMBL document CHEMBL3988442

# SUBJECT_OF_TEST: Tyrosyl-tRNA synthetase, putative (Trypanosoma cruzi (strain CL Brener))
# Sequence (whole entry): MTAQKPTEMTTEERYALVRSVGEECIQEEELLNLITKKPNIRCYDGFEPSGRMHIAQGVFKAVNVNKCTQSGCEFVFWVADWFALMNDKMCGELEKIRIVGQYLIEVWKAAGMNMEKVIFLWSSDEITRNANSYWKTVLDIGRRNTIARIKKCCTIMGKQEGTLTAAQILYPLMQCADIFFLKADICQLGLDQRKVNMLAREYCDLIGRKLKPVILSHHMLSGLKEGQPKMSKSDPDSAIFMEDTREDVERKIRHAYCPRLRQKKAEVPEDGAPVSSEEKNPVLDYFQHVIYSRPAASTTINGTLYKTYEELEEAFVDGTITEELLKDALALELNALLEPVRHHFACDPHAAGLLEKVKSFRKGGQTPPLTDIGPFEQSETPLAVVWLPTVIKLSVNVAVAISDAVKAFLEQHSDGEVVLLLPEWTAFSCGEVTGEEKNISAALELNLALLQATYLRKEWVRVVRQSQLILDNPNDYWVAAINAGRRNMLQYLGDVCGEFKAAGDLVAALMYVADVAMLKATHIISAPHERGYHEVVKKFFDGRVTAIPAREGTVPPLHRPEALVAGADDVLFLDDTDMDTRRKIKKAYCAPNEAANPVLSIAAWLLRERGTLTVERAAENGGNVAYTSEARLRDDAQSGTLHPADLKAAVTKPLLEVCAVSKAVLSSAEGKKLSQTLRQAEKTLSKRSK
# PROTOCOL_NOTES: Trypanosoma cruzi tyrosyl tRNA synthetase (TcYRS) SOP
# Assay type: functional
# Set-up: scale not given: direction of the effect not stated beside the values
# STATED_CONDITIONS: 30 µM
Measured Percent Effect by item
Give your result in % as a bare value.

Would you please look over these solved cases?
>>> experimental_value("NC(=O)C1CCN(c2nc3nccc(-c4ccccn4)c3c(=O)[nH]2)CC1")
23.4
>>> experimental_value("Cn1nc(CNC(=O)NCc2ccc(Cl)cc2)c2c1CCOC2")
-3.85
>>> experimental_value("Cc1nnc(NC(=O)CN(C)CC2CCCN2c2cccnn2)s1 (stereo unspecified)")
1.22
>>> experimental_value("CC(C)(C)OC(=O)N1CCCC[C@H]1C(=O)NCc1nccs1")
8.64
>>> experimental_value("CC(=O)Nc1ncc(S(=O)(=O)Nc2ccc(F)cc2)s1")
10.3

# input Bench note: what Percent Effect did `CC(C)(C)CC(=O)N1CC[C@@H]2[C@H](CC1)N(S(C)(=O)=O)CCS2(=O)=O` show?
# output 20.7

# input Bench note: what Percent Effect did COCCOc1ccccc1C(=O)N1CCCCC1c1nccs1 (stereo unspecified) show?
# output 11.1

# input Bench note: what Percent Effect did Cc1ccc(CNC(=O)N2CCCCC2CCNS(C)(=O)=O)cc1 (stereo unspecified) show?
# output 2.44

# input Bench note: what Percent Effect did CN(Cc1ccco1)C(=O)CN1CCCC(Cn2cncn2)C1 (stereo unspecified) show?
# output 11.1

# input Bench note: what Percent Effect did CC(C)c1nn(C)c(Cl)c1CNCC(O)c1cccc(F)c1 (stereo unspecified) show?
# output 30.6

# input Bench note: what Percent Effect did `COCCNC(=O)C[C@@H]1COC[C@H]2CN(C(=O)c3cnccn3)C[C@@H]12` show?
# output 13.6
